melting point reference

Some solved entries appear below for comparison.
OCc1ccnc(Cl)c1	65.5 to 67.5 °C
CC(C)(C)c1ccc(S(=O)(=O)NCCBr)cc1	76 to 78 °C
O=S1(=O)OC(Cl)c2ccccc21 (stereo unspecified)	110 to 116 °C

Lookup: Indicate the recorded melting point value for this molecule: C#CC1(O)CCC2(C)C3CCC4(C)C(=O)CCC4C3CCC2(C)C1 (stereo unspecified)
Found: 238 °C

Lookup: Indicate the recorded melting point value for this molecule: `N#CCCSCCC#N`
Found: 24 to 25 °C

Lookup: Indicate the recorded melting point value for this molecule: `O=C(CCl)NCO`
Found: 100 °C

---

measured-property: melting point

Some solved entries appear below for comparison.
COc1ccccc1C1OC(=O)CC1C(=O)O (stereo not drawn)	124 to 125 °C
O=C(O)[C@@H]1CCCC[C@H]1C(=O)c1ccc(Cl)cc1 (relative stereo)	157 to 161 °C
CC(CCC(=O)O)C1CCC2C(C(=O)O)C(C3(C)CCCCC3C(=O)O)CCC12C (stereo not drawn)	265 to 267 °C
Nc1ccc(CN2CCCC2)cc1	46 to 48 °C
CC(=O)NC1=NC(=O)C(=Cc2cc(=O)c3ccccc3o2)N1C	244 to 246 °C
O=C(C1CCNCC1)N1CCCCC1	107 to 109 °C
Ic1cccc(Cn2cccn2)c1	51 to 54 °C
CC(=O)Oc1ccc([N+](=O)[O-])cc1[N+](=O)[O-]	69 to 75 °C

Lookup: Indicate the recorded melting point value for this molecule: `FC(F)(F)c1cc(C=Cc2noc(CCl)n2)cc(C(F)(F)F)c1`
Found: 106 to 108 °C

Lookup: Indicate the recorded melting point value for this molecule: `Cn1nc(C(=O)Cl)cc1-c1cccs1`
Found: 48 to 49 °C

Lookup: Indicate the recorded melting point value for this molecule: `O=C1c2ccccc2S(=O)(=O)N1Br`
Found: 160 to 170 °C

Lookup: Indicate the recorded melting point value for this molecule: `O=Cc1c[nH]nc1-c1ccc(C(F)(F)F)cc1`
Found: 113 to 115 °C

Lookup: Indicate the recorded melting point value for this molecule: `CC(C)(O)C#CC#CC(C)(C)O`
Found: 132 to 134 °C

---

melting point reference

Some solved entries appear below for comparison.
Cc1n[nH]c(SCC(=O)c2ccc(Cl)cc2)n1	185 to 188 °C
CC1(C)C(=O)N(O)C(C)(C)C(=O)N1O	300 to 303 °C

Lookup: Indicate the recorded melting point value for this compound: `O=C(O)CCCCCO`
Found: 38 to 40 °C

Lookup: Indicate the recorded melting point value for this compound: `CC(=O)Nc1ccc(S(=O)(=O)Cl)cc1Cl`
Found: 143 to 145 °C

Lookup: Indicate the recorded melting point value for this compound: `CCOC(=O)c1cc(I)c(N)c(I)c1`
Found: 145 to 146 °C

Lookup: Indicate the recorded melting point value for this compound: `Cc1cc(N)c(Cl)cc1F`
Found: 69 to 71 °C

Lookup: Indicate the recorded melting point value for this compound: `c1ccc2c(c1)OCCOCCOCCOc1ccccc1OCCO2`
Found: 117 to 120 °C

Lookup: Indicate the recorded melting point value for this compound: `CC(=O)Oc1c(-c2ccccc2)n(C(C)=O)c2cc([N+](=O)[O-])c(/C(Cl)=C/c3ccccc3)cc12`
Found: 57 to 58 °C

Lookup: Indicate the recorded melting point value for this compound: `CC1=C(O)C(=O)CC1`
Found: 106 °C

Lookup: Indicate the recorded melting point value for this compound: `O=C1C=C(NCCCCc2ccccc2)C(=O)c2ccccc21`
Found: 137 °C

Lookup: Indicate the recorded melting point value for this compound: `CCOOCC`
Found: -70 °C

Lookup: Indicate the recorded melting point value for this compound: `O=C(N[C@@H](Cc1ccccc1)C(=O)O)OCC1c2ccccc2-c2ccccc21`
Found: 183 to 187 °C

Lookup: Indicate the recorded melting point value for this compound: `Cc1cc(=O)[nH]c(=S)[nH]1`
Found: 317 to 318 °C

Lookup: Indicate the recorded melting point value for this compound: `C1=C(c2ccccc2)CCCC1`
Found: -11 °C

Lookup: Indicate the recorded melting point value for this compound: `O=C1C=C(/C=C/c2ccccc2)CCC1`
Found: 65 to 67 °C

Lookup: Indicate the recorded melting point value for this compound: `Cc1cccc(NC(=O)C(C(F)(F)F)C(F)(F)F)n1`
Found: 107 °C

Lookup: Indicate the recorded melting point value for this compound: O=C1CSC(c2cccs2)C1 (stereo unspecified)
Found: 55 to 58 °C

Lookup: Indicate the recorded melting point value for this compound: `COC(=O)Nc1nc2ccccc2[nH]1`
Found: 305 °C

Lookup: Indicate the recorded melting point value for this compound: `OCc1cc(OCc2ccccc2)cc(OCc2ccccc2)c1`
Found: 78 to 82 °C

Lookup: Indicate the recorded melting point value for this compound: C=CCN1C(=O)C(CC(C)C)NC1=S (stereo unspecified)
Found: 210 °C

Lookup: Indicate the recorded melting point value for this compound: `O=[N+]([O-])c1c(Cl)c(Cl)cc(Cl)c1Cl`
Found: 100 °C
